- Target of assay: SARS-CoV-2 NSP3 Mac1 (Severe acute respiratory syndrome coronavirus 2)
- Type: binding
- Set-up: contains a conserved macrodomain enzyme (Mac1)
- Settings: maximal thermal upshift
- Method: DSF and associated compound handling was performed as described ([12]), with 5 µM dye “Fluorescent Yellow” (Jacquard iDye Cat #JID1405) used in place of SYPRO Orange. […] To minimize experimental noise arising from plate location-based effects on Tma, all concentrations and replicates for each compound were tested within a single region of the microtiter plates, including a DMSO-only control from which ΔTmas were calculated for that compound. […]
Outcome measure: DSF max dTma

Let me know recorded DSF max dTma for O=C(O)CCC1CCCN(c2ncnc3[nH]c4cc(F)ccc4c23)C1 (stereo not shown) , thanks. 2.71 ˚C

Let me know recorded DSF max dTma for `O=C(O)C[C@@H]1CCCN(c2ncnc3nc[nH]c23)C1` , thanks. 0.58 ˚C

Let me know recorded DSF max dTma for O=C1CC2(CC2)C(CSc2n[nH]c(-c3ccccn3)n2)O1 (stereo not shown) , thanks. 0.32 ˚C

Let me know recorded DSF max dTma for CNc1cc(N2CCCC(c3nc(C)no3)C2)ncn1 (stereo not shown) , thanks. 0.27 ˚C

Let me know recorded DSF max dTma for O=C(O)CC1Cc2ccccc2N1C(=O)c1ccc(NC(=O)NC2CC2)cc1 (stereo not shown) , thanks. 2.09 ˚C

Let me know recorded DSF max dTma for O=C(c1cn[nH]c(=O)c1)N1CCC(CF)(C(=O)O)C1 (stereo not shown) , thanks. 0 ˚C

Let me know recorded DSF max dTma for CCc1noc(C(C)OC(=O)c2cccc3[nH]c(=O)oc23)n1 (stereo not shown) , thanks. 0.13 ˚C

Let me know recorded DSF max dTma for Nc1ncnc(N2CCCC(CCC(=O)O)C2)c1Cl (stereo not shown) , thanks. 0.34 ˚C

Let me know recorded DSF max dTma for CNc1ccc(C(=O)N2CC(C(=O)O)CC2(C)C)cn1 (stereo not shown) , thanks. 0.21 ˚C

Let me know recorded DSF max dTma for `O=C(c1ncnc2[nH]ccc12)N1CC(n2cncn2)C1` , thanks. 0.66 ˚C

Let me know recorded DSF max dTma for `O=C(Nc1ccc(C(=O)N[C@H]2c3ccccc3CC[C@H]2C(=O)O)cc1)NC1CC1` , thanks. 4.92 ˚C

Let me know recorded DSF max dTma for O=C(NC1c2cccc(O)c2CC1C(=O)O)c1cnc2c(c1)CCCN2 (stereo not shown) , thanks. 0 ˚C

Let me know recorded DSF max dTma for `O=C(O)[C@@H]1CCCN(C(=O)c2ccnc3[nH]ccc23)C1` , thanks. 0.25 ˚C

Let me know recorded DSF max dTma for O=C(Nc1ccccc1)Nc1ccc(C(=O)NC2c3cccc(O)c3CC2C(=O)O)cc1 (stereo not shown) , thanks. 9.9 ˚C

Let me know recorded DSF max dTma for `CCc1c[nH]c2ncc(-c3c(C(=O)O)c(C)nn3C)cc12` , thanks. 0.35 ˚C

Let me know recorded DSF max dTma for O=c1nc(N2CC(Cn3cnnc3)C3(CCC3)C2)cc(Cl)[nH]1 (stereo not shown) , thanks. 0.04 ˚C

Let me know recorded DSF max dTma for NC(=O)C1CCCN(c2ncnc3[nH]c4cc(F)ccc4c23)C1 (stereo not shown) , thanks. 0.6 ˚C

Let me know recorded DSF max dTma for `Cc1cc(S(=O)(=O)N2CCC[C@H](C(N)=O)C2)cnc1N` , thanks. 0.21 ˚C

Let me know recorded DSF max dTma for CNc1ccc(C(=O)N2CC(C(=O)O)CC23CCOCC3)cn1 (stereo not shown) , thanks. 0.04 ˚C

Let me know recorded DSF max dTma for O=C(NC1c2cccc(O)c2CC1C(=O)O)c1ccc(NCC2CC2)nc1 (stereo not shown) , thanks. 2.03 ˚C

Let me know recorded DSF max dTma for `CN(CC(=O)O)C(=O)c1ccc2n[nH]c(=O)n2c1` , thanks. 0 ˚C

Let me know recorded DSF max dTma for `CN(CCCC(=O)O)C(=O)c1ncnc2[nH]ccc12` , thanks. 0.12 ˚C

Let me know recorded DSF max dTma for CS(=O)(=O)C1CCCN(c2ncnc3[nH]c4cc(F)ccc4c23)C1 (stereo not shown) , thanks. 0.8 ˚C

Let me know recorded DSF max dTma for O=C(O)CC1CN(c2ncnc3[nH]ccc23)CC2(CCC2)O1 (stereo not shown) , thanks. 2.21 ˚C

Let me know recorded DSF max dTma for COC(=O)C1Cc2c(O)cccc2C1NC(=O)c1ccc(NC(=O)NC2CC2)cc1 (stereo not shown) , thanks. 0 ˚C

Let me know recorded DSF max dTma for `NC(=O)c1cc(N2CCCC[C@H]2C(=O)O)ncn1` , thanks. 0.15 ˚C

Let me know recorded DSF max dTma for Cc1noc(CC2CCCN(c3ncnc4[nH]c5cc(F)ccc5c34)C2)n1 (stereo not shown) , thanks. 0.6 ˚C

Let me know recorded DSF max dTma for CC1(C)CCC(C(=O)O)CN1C(=O)c1ncnc2[nH]ccc12 (stereo not shown) , thanks. 0.62 ˚C

Let me know recorded DSF max dTma for `O=C1CCCN1Cc1cccc(N2C(=O)N[C@@H](CO)C2=O)c1` , thanks. 0.2 ˚C

Let me know recorded DSF max dTma for O=C(Nc1ccc(C(=O)NC2c3ccccc3CC2C(=O)O)cc1)NC1CC1 (stereo not shown) , thanks. 3.66 ˚C

Let me know recorded DSF max dTma for `Cc1ccc([C@@H]2C[C@@H](C)CCN2C(=O)c2ncnc3[nH]ccc23)o1` , thanks. 0.14 ˚C

Let me know recorded DSF max dTma for CC1(C(=O)O)CCN(C(=O)Cc2c[nH]c3nccc(Cl)c23)C1 (stereo not shown) , thanks. 0.07 ˚C

Let me know recorded DSF max dTma for Cc1nnc2n1CC(C(=O)O)N(C(=O)c1ccc(NC(=O)NC3CC3)cc1)C2 (stereo not shown) , thanks. 2.36 ˚C

Let me know recorded DSF max dTma for `Nc1nc(N)c2ncn(C3CN(C(=O)Cc4cccnc4)C3)c2n1` , thanks. 0.61 ˚C

Let me know recorded DSF max dTma for O=C(Nc1ccc(C(=O)N2CC(C(=O)O)Cc3ccccc32)cc1)NC1CC1 (stereo not shown) , thanks. 0.98 ˚C

Let me know recorded DSF max dTma for `Cc1nc(Cc2noc(-c3ncnc4[nH]ccc34)n2)no1` , thanks. 0.27 ˚C

Let me know recorded DSF max dTma for `Cn1nc(O)c2c1CN(C(=O)c1cc(O)cc(=O)o1)CC2` , thanks. 0.09 ˚C

---

- Target of assay: SARS-CoV-2 NSP3 Mac1 (Severe acute respiratory syndrome coronavirus 2)
- Assay type: binding
- Parameters: contains a conserved macrodomain enzyme (Mac1)
- Settings: DSF dose responsiveness, 1 µM nsp3 mac1; adj p given
// returns N unless Spearman est (compound concentration vs apparent Tm) is strictly below 0.2, in which case Y

I wonder whether `CN(Cc1ncc(Cl)n1C)c1ncnc(N)n1` has Spearman est (compound concentration vs apparent Tm) below 0.2. Can you tell? N

I wonder whether `CN(Cc1nnc2c(=O)[nH]ccn12)c1cc(Cl)nc(C2CC2)n1` has Spearman est (compound concentration vs apparent Tm) below 0.2. Can you tell? Y

I wonder whether O=C(NC1c2cccc(O)c2CC1C(=O)O)c1cnc(NC2CCOCC2)cn1 (centres unmarked) has Spearman est (compound concentration vs apparent Tm) below 0.2. Can you tell? N

I wonder whether CC(c1ccc(Cl)c(Cl)c1)S(=O)(=O)Cc1cn[nH]c1 (centres unmarked) has Spearman est (compound concentration vs apparent Tm) below 0.2. Can you tell? Y

I wonder whether `O=C(OCCN1CCOC1=O)c1ncnc2[nH]ccc12` has Spearman est (compound concentration vs apparent Tm) below 0.2. Can you tell? N

---

- Target of assay: UniProtKB P0DTD1
- Assay type: binding
- Settings: ligand occupancy after refinement (phenix.refine); crystal soaking of Mac1
Assignment: determine reported Refined occupancy for the given molecules.
Just the number, please.

Let me know recorded Refined occupancy for `CNS(=O)(=O)c1cc(C(=O)N2CCc3nc(N)ncc3C2)co1` , thanks. 12

Let me know recorded Refined occupancy for O=C(O)CCC1CN(c2ncnc3[nH]c4cc(F)ccc4c23)CCO1 (stereo not shown) , thanks. 32

Let me know recorded Refined occupancy for `O=C(Nc1ccc(C(=O)NCc2c(C(=O)O)oc3ccccc23)cc1)NC1CC1` , thanks. 66

Let me know recorded Refined occupancy for CS(=O)(=O)NC(=O)C1(F)CN(c2ncnc3[nH]c4cc(F)ccc4c23)CC12CCC2 (stereo not shown) , thanks. 36

---

- System: P-glycoprotein (human MDR1)
- Assay protocol: in vitro
- Settings: dog, MDCK-MDR1, pH 7.4, permeability, MDR1-MDCKII, basal to apical
Outcome measure: Papp (nm/s)
Note: unit nm/s is implicit; provide only the numeric part.

Let me know recorded Papp for `O=C(O)[C@H]1CCCC[C@H]1Nc1ncnc2[nH]c3cc(F)ccc3c12` , thanks. 91

Let me know recorded Papp for `O=C1CCCN1Nc1ncnc2[nH]c3cc(F)ccc3c12` , thanks. 243
